Target: human 5-HT2A receptor (Homo sapiens (Human), UniProt P28223)
Sequence (P28223 whole entry): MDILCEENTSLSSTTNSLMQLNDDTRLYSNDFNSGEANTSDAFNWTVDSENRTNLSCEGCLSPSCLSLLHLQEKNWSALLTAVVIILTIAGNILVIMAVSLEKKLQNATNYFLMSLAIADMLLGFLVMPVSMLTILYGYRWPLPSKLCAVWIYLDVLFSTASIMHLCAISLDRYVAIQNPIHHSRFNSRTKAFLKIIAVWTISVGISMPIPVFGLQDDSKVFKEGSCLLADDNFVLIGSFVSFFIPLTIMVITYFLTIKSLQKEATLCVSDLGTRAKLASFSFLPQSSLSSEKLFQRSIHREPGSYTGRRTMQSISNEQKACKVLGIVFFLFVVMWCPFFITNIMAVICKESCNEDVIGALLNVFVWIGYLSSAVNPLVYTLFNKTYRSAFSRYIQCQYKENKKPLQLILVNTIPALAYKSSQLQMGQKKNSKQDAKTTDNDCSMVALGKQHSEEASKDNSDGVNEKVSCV
Assay: Radioligand binding assay, [3H]-ketanserin, human 5-HT2A receptor
pKi: −log10 of the molar value.
Measured pKi values are reported for all entries that follow.

| compound | system | pKi |
| --- | --- | --- |
| O=C(CC1(O)CCC1)N[C@H]1CC[C@H](CCN2CCN(c3nccc4c3CCO4)CC2)CC1 | human 5-HT2A receptor (Homo sapiens (Human), UniProt P28223) | 7.65 |
| O=C(N[C@H]1CC[C@H](CCN2CCN(c3nccc4c3CCO4)CC2)CC1)c1ccc(F)cc1 | human 5-HT2A receptor (Homo sapiens (Human), UniProt P28223) | 7.95 |
| CC[C@@H](O)CC(=O)N[C@H]1CC[C@H](CCN2CCN(c3nccc4c3CCO4)CC2)CC1 | human 5-HT2A receptor (Homo sapiens (Human), UniProt P28223) | 7.38 |
| O=C(CC1CC1)N[C@H]1CC[C@H](CCN2CCN(c3nccc4c3CCO4)CC2)CC1 | human 5-HT2A receptor (Homo sapiens (Human), UniProt P28223) | 7.86 |
| O=C(CCO)N[C@H]1CC[C@H](CCN2CCN(c3nccc4c3CCO4)CC2)CC1 | human 5-HT2A receptor (Homo sapiens (Human), UniProt P28223) | 7.45 |
| Cc1cc(C(=O)N[C@H]2CC[C@H](CCN3CCN(c4nccc5c4CCO5)CC3)CC2)on1 | human 5-HT2A receptor (Homo sapiens (Human), UniProt P28223) | 7.80 |
| CC(C)(C)c1ccc(C(=O)N[C@H]2CC[C@H](CCN3CCN(c4nccc5c4CCO5)CC3)CC2)cc1 | human 5-HT2A receptor (Homo sapiens (Human), UniProt P28223) | 7.18 |
| O=C(N[C@H]1CC[C@H](CCN2CCN(c3nccc4sccc34)CC2)CC1)C1CCOCC1 | human 5-HT2A receptor (Homo sapiens (Human), UniProt P28223) | 8.77 |
| CC(C)C(=O)N[C@H]1CC[C@H](CCN2CCN(c3nccc4c3CCO4)CC2)CC1 | human 5-HT2A receptor (Homo sapiens (Human), UniProt P28223) | 7.99 |
| CN(C)C(=O)N[C@H]1CC[C@H](CCN2CCN(c3nccc4c3CCO4)CC2)CC1 | human 5-HT2A receptor (Homo sapiens (Human), UniProt P28223) | 7.54 |
| CC[C@H](O)CC(=O)N[C@H]1CC[C@H](CCN2CCN(c3nccc4c3CCO4)CC2)CC1 | human 5-HT2A receptor (Homo sapiens (Human), UniProt P28223) | 7.52 |
| N#CCC(=O)N[C@H]1CC[C@H](CCN2CCN(c3nccc4c3CCO4)CC2)CC1 | human 5-HT2A receptor (Homo sapiens (Human), UniProt P28223) | 7.80 |
| O=C(N[C@H]1CC[C@H](CCN2CCN(c3nccc4c3CCO4)CC2)CC1)c1ccc(N2CCOCC2)nc1 | human 5-HT2A receptor (Homo sapiens (Human), UniProt P28223) | 7.81 |
| COC(C)CC(=O)N[C@H]1CC[C@H](CCN2CCN(c3nccc4c3CCO4)CC2)CC1 (stereo partly shown) | human 5-HT2A receptor (Homo sapiens (Human), UniProt P28223) | 7.52 |
| O=C(N[C@H]1CC[C@H](CCN2CCN(c3nccc4c3CCO4)CC2)CC1)c1ccc(Cl)cc1 | human 5-HT2A receptor (Homo sapiens (Human), UniProt P28223) | 7.83 |
| CC(=O)N[C@H]1CC[C@H](CCN2CCN(c3nccc4sccc34)CC2)CC1 | human 5-HT2A receptor (Homo sapiens (Human), UniProt P28223) | 8.48 |
